# Measurement Protocol: Pharmacokinetic evaluation in plasma after IV and PO administration
# Format: in vivo
# Assay Context: mouse, female Balb/c mice, IV 1 mg/kg, read-out: Vdss
Value Kind: Vd (L/kg)
Could you give me the number in L/kg? Just the number is fine.

Value of measured Vd for the entry CNC(=O)c1cccc(-c2ccc3c(N4CCOC[C@@H]4C)nc(N4CCOC[C@@H]4C)nc3n2)c1 [AZD2014, reference compound] : 0.677

Value of measured Vd for the entry C[C@H]1COC2(CCC2)CN1c1nc(N2CCOC[C@@H]2C)c2ccc(-c3cccc(C(N)=O)c3)nc2n1 : 0.657

Value of measured Vd for the entry CNC(=O)c1cc(-c2ccc3c(N4CCOC[C@@H]4C)nc(N4CCOC5(CC5)C4)nc3n2)ccc1OC : 0.272

* * *

# Measurement Protocol: Pharmacokinetic evaluation in plasma after IV and PO administration
# Format: in vivo
# Assay Context: mouse, female Balb/c mice, PO 10 mg/kg
Could you please report measured half-life for the items listed next?
Could you give me the number in h? Just the number is fine.

Value of measured half-life for the entry C[C@H]1COCCN1c1nc(N2CCOC3(CC3)C2)nc2nc(-c3cccc(C(N)=O)c3)ccc12 : 1.22

Value of measured half-life for the entry CNC(=O)c1cccc(-c2ccc3c(N4CCOC[C@@H]4C)nc(N4CCOC[C@@H]4C)nc3n2)c1 [AZD2014, reference compound] : 3.46

Value of measured half-life for the entry CNC(=O)c1cccc(-c2ccc3c(N4CCOC[C@@H]4C)nc(N4CCOC5(CCC5)C4)nc3n2)c1 : 2.61

Value of measured half-life for the entry CNC(=O)c1cccc(-c2ccc3c(N4CCOC[C@@H]4C)nc(N4CCOC5(CC5)C4)nc3n2)c1 : 3.33

* * *

Could you please report measured half-life for the items listed next?
# Measurement Protocol: Pharmacokinetic evaluation in plasma after IV and PO administration
# Assay type: in vivo
# Assay Context: mouse, female Balb/c mice, PO 2 mg/kg
Could you give me the number in h? Just the number is fine.

Value of measured half-life for the entry CNC(=O)c1cc(-c2ccc3c(N4CCOC[C@@H]4C)nc(N4CCOC5(CC5)C4)nc3n2)ccc1OC [Embodiment 55] : 1.15

Value of measured half-life for the entry C[C@H]1COC2(CCC2)CN1c1nc(N2CCOC[C@@H]2C)c2ccc(-c3cccc(C(N)=O)c3)nc2n1 [Embodiment 35] : 1.33

Value of measured half-life for the entry CNC(=O)c1cccc(-c2ccc3c(N4CCOC[C@@H]4C)nc(N4CCOC[C@@H]4C)nc3n2)c1 [AZD2014, reference compound] : 1.14

* * *

# System: human breast cancer MCF-7 cell subcutaneous xenograft tumor
# Measurement Protocol: In vivo pharmacodynamic study, MCF-7 subcutaneous xenograft tumor
# Design: species or system BALB/c nude mouse
# Assay Context: 15 mg/kg, 27th day
# Procedure: Experimental Embodiment 4: In Vivo Pharmacodynamic Study on BALB/c Nude Mouse Model of Human Breast Cancer MCF-7 Cell Subcutaneous Xenograft Tumor […] The experimental indexes were used for investigating whether the growth of the tumors had been inhibited, delayed or cured. The diameters of the tumors were measured with vernier calipers twice a week. […] The antitumor efficacy of the compound was evaluated by TGI (%) or relative tumor proliferation rate T/C (%). […]
Value Kind: RTV (27th day)

Value of measured RTV (27th day) for the entry CC1COCCN1c1nc(N2CCOC3(CCCC3)C2)nc2nc(-c3cccc(C(N)=O)c3)ccc12 (centres unmarked) : 5.07 ± 0.92

Value of measured RTV (27th day) for the entry CNC(=O)c1cccc(-c2ccc3c(N4CCOC[C@@H]4C)nc(N4CCOC5(CCC5)C4)nc3n2)c1 : 2.26 ± 0.48

Value of measured RTV (27th day) for the entry C[C@H]1COCCN1c1nc(N2CCOC3(CCC3)C2)nc2nc(-c3cccc(C(N)=O)c3)ccc12 : 2.11 ± 0.39

Value of measured RTV (27th day) for the entry C[C@H]1COCCN1c1nc(N2CCOC3(CC3)C2)nc2nc(-c3cccc(C(N)=O)c3)ccc12 : 2.41 ± 0.36

Value of measured RTV (27th day) for the entry CNC(=O)c1cccc(-c2ccc3c(N4CCOC[C@@H]4C)nc(N4CCOC[C@@H]4C)nc3n2)c1 [AZD2014, reference compound] : 0.85 ± 0.26

* * *

# Measurement Protocol: Pharmacokinetic evaluation in plasma after IV and PO administration
# Format: in vivo
# Assay Context: mouse, female Balb/c mice, PO 10 mg/kg
Could you please report measured bioavailability for the items listed next?
Could you give me the number in %? Just the number is fine.

Value of measured bioavailability for the entry CNC(=O)c1cccc(-c2ccc3c(N4CCOC[C@@H]4C)nc(N4CCOC[C@@H]4C)nc3n2)c1 [AZD2014, reference compound] : 93.1

Value of measured bioavailability for the entry CNC(=O)c1cccc(-c2ccc3c(N4CCOC[C@@H]4C)nc(N4CCOC5(CCC5)C4)nc3n2)c1 [Embodiment 23] : 89.9

Value of measured bioavailability for the entry C[C@H]1COCCN1c1nc(N2CCOC3(CC3)C2)nc2nc(-c3cccc(C(N)=O)c3)ccc12 [Embodiment 51] : 89.5

Value of measured bioavailability for the entry CNC(=O)c1cccc(-c2ccc3c(N4CCOC[C@@H]4C)nc(N4CCOC5(CC5)C4)nc3n2)c1 [Embodiment 1] : 94.4

* * *

# System Name: mTOR kinase (mTORC1 and mTORC2 kinase complex) (Homo sapiens, UniProt P42345)
# Measurement Protocol: In vitro evaluation of mTOR kinase inhibitory activity (DiscoverX ligand-bead competition binding, qPCR readout)
Value Kind: pKd
pKd (log units): -log10 of the concentration in mol/L.

Value of measured pKd for the entry CNC(=O)c1cccc(-c2ccc3c(N4CC5CCC(C4)O5)nc(N4CCOC5(CC5)C4)nc3n2)c1 [Embodiment 26] : 9.00

Value of measured pKd for the entry CNC(=O)c1cccc(-c2ccc3c(N4CCOCC4C)nc(N4CCOC5(CCSC5)C4)nc3n2)c1 (single isomer, unassigned) [Embodiment 45-1] : 9.30

Value of measured pKd for the entry C[C@H]1COCCN1c1nc(N2CCOC3(C2)CC(F)(F)C3)nc2nc(-c3cccc(C(=O)NC4CC4)c3)ccc12 [Embodiment 29] : 8.57

Value of measured pKd for the entry CNC(=O)c1cccc(-c2ccc3c(N4CCOC[C@@H]4C)nc(N4CCOC5(C4)CC(F)(F)C5)nc3n2)c1 [Embodiment 28] : 8.85

Value of measured pKd for the entry CNC(=O)c1cccc(-c2ccc3c(N4CCOCC4C)nc(N4CCOC5(CC(O)C5)C4)nc3n2)c1 (single isomer, unassigned) [Embodiment 33-1] : 9.11

Value of measured pKd for the entry C[C@H]1COCCN1c1nc(N2CCOC3(CC3)C2)nc2nc(-c3cccc(C(=O)NO)c3)ccc12 [Embodiment 4] : 9.66

Value of measured pKd for the entry CNC(=O)c1cccc(-c2ccc3c(N4CCOCC4C)nc(N4CCC5(CC4)CC5)nc3n2)c1 (centres unmarked) [Embodiment 10] : 8.11

Value of measured pKd for the entry CC1COCCN1c1nc(N2CCOC3(CCOC3)C2)nc2nc(-c3cccc(C(N)=O)c3)ccc12 (single isomer, unassigned) [Embodiment 50-1] : 8.72

* * *

# System Name: mTOR kinase (mTORC1 and mTORC2 kinase complex) (Homo sapiens, UniProt P42345)
# Measurement Protocol: In vitro evaluation of mTOR kinase inhibitory activity (DiscoverX ligand-bead competition binding, qPCR readout)
Could you please report measured pKd for the items listed next?
pKd (log units): -log10 of the concentration in mol/L.

Value of measured pKd for the entry CNC(=O)c1cccc(-c2ccc3c(N4CCOC[C@@H]4C)nc(N4CCOCC45CC5)nc3n2)c1 : 9.01

Value of measured pKd for the entry CNC(=O)c1cccc(-c2ccc3c(N4CCOCC4C)nc(N4CCOC5(CCOC5)C4)nc3n2)c1 (single isomer, unassigned) [Embodiment 32-1] : 9.10

Value of measured pKd for the entry C[C@H]1COCCN1c1nc(N2CCOC3(COC3)C2)nc2nc(-c3cccc(C(N)=O)c3)ccc12 : 9.10

Value of measured pKd for the entry CNC(=O)c1cccc(-c2ccc3c(N4CCOCC4C)nc(N4CCOC5(CCSC5)C4)nc3n2)c1 (single isomer, unassigned) [Embodiment 45-2] : 8.77
